assay-protocol: MRT in C57 nude mouse at 30 mg/kg, ip measured at 0.083 to 24 hrs by LC/MS/MS analysis
Format: ADME, organism-based
experimental-parameters: in vivo, time 0.083-24 hrs
experimental-endpoint: MRT

CCOc1ccc(-c2cncnc2-c2cc(OC)c(OC)c(OC)c2)cc1Cl	1.77 h

----------
pIC50: recorded values
Test system: HeLa
assay-protocol: Antiproliferative activity against human HeLa cells assessed as reduction in cell growth measured after 48 to 72 hrs by CCK-8 assay
Format: functional, cell-based
pIC50: −log10 of the molar value.
experimental-endpoint: pIC50

COc1ccc(/C=C\c2cc(OC)c(OC)c(OC)c2)cc1O	8.38
CCOc1ccc(-c2cncnc2-c2cc(OC)c(OC)c(OC)c2)cc1Cl	7.05

----------
assay-protocol: Antiproliferation activity against human MS751 cells assessed as reduction in cell growth measured after 48 to 72 hrs by CCK-8 assay
Assay type: functional, cell-based
// boundary case: IC50 equal to 200 nM maps to 0.0; strictly smaller maps to 1.0

COc1ccc(-c2cncnc2-c2cc(OC)c(OC)c(OC)c2)nc1	0.0
COc1ccc(-c2cncnc2-c2cc(OC)c(OC)c(OC)c2)cc1	0.0
CCOc1ccc(-c2cncnc2-c2cc(OC)c(OC)c(OC)c2)cc1Cl	1.0
COc1ccc(/C=C\c2cc(OC)c(OC)c(OC)c2)cc1O	1.0
COc1ccc(-c2cncnc2-c2cc(OC)c(OC)c(OC)c2)cc1Cl	0.0
CNC(=O)c1ccc(-c2cncnc2-c2cc(OC)c(OC)c(OC)c2)cc1	0.0
CCOc1ccc(-c2cncnc2-c2cc(OC)c(OC)c(OC)c2)cc1	0.0
CCSc1ccc(-c2cncnc2-c2cc(OC)c(OC)c(OC)c2)cc1	0.0
COc1cc(-c2ncncc2-c2ccc(SC)cc2)cc(OC)c1OC	1.0
COc1cc(-c2ncncc2-c2ccc(C(=O)N(C)C)cc2)cc(OC)c1OC	0.0

----------
target-system: Tubulin (Sus scrofa, UniProt P02554+P02550)
assay-protocol: Inhibition of pig brain tubulin polymerization by spectrophotometeric analysis
Parameters: species or system Sus scrofa domesticus
experimental-endpoint: IC50 (µM)

COc1ccc(-c2cncnc2-c2cc(OC)c(OC)c(OC)c2)cc1F	29.9
COc1cc(-c2ncncc2-c2ccc3cc[nH]c3c2)cc(OC)c1OC	62.8
CCOc1ccc(-c2cncnc2-c2cc(OC)c(OC)c(OC)c2)cc1Cl	4.6
COc1ccc(-c2cncnc2-c2cc(OC)c(OC)c(OC)c2)cc1Cl	53.1
COc1ccc(-c2cncnc2-c2cc(OC)c(OC)c(OC)c2)nc1	63.7
CCOc1ccc(-c2cncnc2-c2cc(OC)c(OC)c(OC)c2)cc1	3.7
COc1ccc(-c2cncnc2-c2cc(OC)c(OC)c(OC)c2)cc1	71.2

----------
assay-protocol: AUC(0 to t) in C57 nude mouse at 30 mg/kg, ip measured at 0.083 to 24 hrs by LC/MS/MS analysis
Assay type: ADME, organism-based
Parameters: dose 30 mg/kg, time upper 24 hrs, time lower 0.083 hrs, route ip
experimental-parameters: in vivo
experimental-endpoint: AUC(0-t) (ng·h/mL)

CCOc1ccc(-c2cncnc2-c2cc(OC)c(OC)c(OC)c2)cc1Cl	5610

----------
assay-protocol: Acute toxicity in ICR mouse assessed as median lethal dose administered intraperitoneally upto 14 days
experimental-parameters: in vivo, route ip, time < 14 day
experimental-endpoint: LD50 at 336 h (mg/kg)

CCOc1ccc(-c2cncnc2-c2cc(OC)c(OC)c(OC)c2)cc1Cl	1000

Hello, the source for this data is ChEMBL document CHEMBL5154820, in case you need it.
